# targetOrSystem: T1, Macaca fascicularis IL2Rγ extracellular domain expressed with a C-terminal myc-myc-hexahistidine tag (Macaca fascicularis)
# T1 construct: also called mfIL-2Rg-MMH; mfIL-2RG-MMH
# T1 chain: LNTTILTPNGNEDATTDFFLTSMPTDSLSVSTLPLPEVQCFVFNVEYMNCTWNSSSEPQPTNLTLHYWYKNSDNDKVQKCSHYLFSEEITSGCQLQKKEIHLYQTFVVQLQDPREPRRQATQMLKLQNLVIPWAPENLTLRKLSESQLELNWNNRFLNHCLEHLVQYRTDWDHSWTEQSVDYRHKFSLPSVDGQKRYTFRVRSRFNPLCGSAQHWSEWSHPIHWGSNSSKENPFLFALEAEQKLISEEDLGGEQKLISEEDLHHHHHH
# testProtocol: SPR, captured mAb, 25C, dissociation pH 6.0
metric: t1/2 (min)
Value expressed in min; do not type the unit.

H4H12889P (antibody, human IgG4 S228P, kappa, V domains shown, anti-IL2Rgamma mAb expressed with human IgG4 Fc; also called REGN7257) VH: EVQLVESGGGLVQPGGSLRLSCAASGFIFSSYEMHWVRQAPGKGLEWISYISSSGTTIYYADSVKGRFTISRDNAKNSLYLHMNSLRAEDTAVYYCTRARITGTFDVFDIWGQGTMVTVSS VL: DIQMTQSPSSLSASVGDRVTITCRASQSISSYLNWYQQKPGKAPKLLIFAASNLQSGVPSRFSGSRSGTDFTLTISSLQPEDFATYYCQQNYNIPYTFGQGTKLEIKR    27

Task item: Recorded t1/2 for H4H12858P (antibody, human IgG4 S228P, kappa, V domains shown, anti-IL2Rgamma mAb expressed with human IgG4 Fc; also called REGN9433) VH: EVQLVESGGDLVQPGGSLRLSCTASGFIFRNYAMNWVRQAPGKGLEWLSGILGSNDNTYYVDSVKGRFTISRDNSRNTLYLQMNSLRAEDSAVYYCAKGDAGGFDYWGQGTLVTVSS VL: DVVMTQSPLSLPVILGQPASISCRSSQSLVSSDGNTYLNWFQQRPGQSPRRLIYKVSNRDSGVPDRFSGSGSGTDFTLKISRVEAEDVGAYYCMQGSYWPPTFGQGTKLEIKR , please?
Reply: 30

Task item: Would you kindly share the measured t1/2 for H4H12863P (antibody, human IgG4 S228P, kappa, V domains shown, anti-IL2Rgamma mAb expressed with human IgG4 Fc) VH: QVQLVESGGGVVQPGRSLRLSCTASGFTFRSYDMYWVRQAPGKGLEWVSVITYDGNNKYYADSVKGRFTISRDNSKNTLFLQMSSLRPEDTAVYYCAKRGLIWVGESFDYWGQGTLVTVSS VL: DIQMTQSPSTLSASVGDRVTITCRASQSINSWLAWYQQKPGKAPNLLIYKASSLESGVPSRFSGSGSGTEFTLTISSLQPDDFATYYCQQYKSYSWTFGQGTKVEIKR ?
Reply: 15
